TARGET_OR_SYSTEM: DNA gyrase A/A/B/B tetramer (Escherichia coli (strain K12), UniProt P0AES4+P0AES6)
ASSAY_SUMMARY: In vitro antibacterial activity was determined as inhibitory concentration causing 50% DNA-gyrase supercoiling inhibition (SCI)
PROPERTY_MEASURED: IC50 (µM)

> print(dat)
                         chemical.structure  property.measured  unit  number
1  C[C@H]1COc2c(N3CCN(C)CC3)c(F)cc3c(=O)c(C(=O)O)cn1c23               IC50    µM    4.98
